biological target: RPS6KA2 KD1 KD2 (human); assay: radiometric filter-binding kinase assay, Kinase HotSpot; conditions: compound 0.5 µM; ATP 10 µM
# residual activity listing for each entry below
Readout type: residual activity (%)

structure_as_smiles=O=C1Nc2ccccc2/C1=C\c1c(Cl)[nH]c2ccccc12 study_system="RPS6KA2 KD1 KD2 (human)" readout_type="residual activity" unit_info=% observed=81.1
structure_as_smiles=O=C1Cc2c([nH]c3ccc([N+](=O)[O-])cc23)-c2ccccc2N1 study_system="RPS6KA2 KD1 KD2 (human)" readout_type="residual activity" unit_info=% observed=62
structure_as_smiles=CCN1/C(=C/C(C)=O)Sc2ccc(OC)cc21 study_system="RPS6KA2 KD1 KD2 (human)" readout_type="residual activity" unit_info=% observed=83.3
structure_as_smiles=CC(C)n1cnc2c(Nc3cccc(Cl)c3)nc(NCCO)nc21 study_system="RPS6KA2 KD1 KD2 (human)" readout_type="residual activity" unit_info=% observed=62.1
